Data provenance is paper PMC7618375.

- Study System: MPP8 CD (chromodomain, residues 55–116) (Homo sapiens)
- Construct: The MPP8 CD (residues 55–116) was cloned with a tobacco etch virus (TEV) protease cleavage site; His6 (N); TEV protease cleavage site (ENLYFQG) (N); made in house; host or cells: E. coli BL21 (DE3)
- Sequence (Q99549 55-116): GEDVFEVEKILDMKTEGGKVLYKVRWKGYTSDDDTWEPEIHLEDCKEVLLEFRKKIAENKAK
- Protocol Text: Isothermal titration calorimetry (ITC) of H3K9 and H3K9-like peptides titrated into MPP8 CD
- Type: binding
- Experimental Context: 50 mM HEPES pH 7.4, 0.1 M NaCl, 0.5 mM TCEP, 25 °C, 50 μM MPP8 CD in cell, 750 μM peptide in syringe, single-site model
pKd: −log10 of the molar value. Non-standard residues stand in square brackets, D forms with d. Residues, ends and D or L forms follow the SMILES beside them. Lys(Me3) = C[N+](C)(C)CCCC[C@H](N)C(=O)O
Attribute Measured: pKd

[Q] So what's the measured pKd for this one? CC[C@H](C)[C@H](NC(=O)CNC(=O)[C@H](Cc1c[nH]cn1)NC(=O)[C@@H](NC(=O)[C@@H](N)CO)[C@@H](C)O)C(=O)N[C@@H](C)C(=O)N[C@H](C(=O)N[C@@H](CCCC[N+](C)(C)C)C(=O)N[C@@H](CO)C(=O)N[C@H](C(=O)N[C@@H](CC(N)=O)C(=O)N[C@@H](CCSC)C(=O)N[C@@H](C)C(=O)N[C@@H](CO)C(=O)O)[C@@H](C)O)[C@@H](C)CC [SETDB1 1171-1184 K1178me3] (H-STHGIAI[Lys(Me3)]STNMAS-OH; N-terminus and C-terminus assumed)
[A] < 4.30
